Tested on: CXCR4
assay.name: CXCL12-induced calcium mobilization assay (Fluo-3 AM)
Type: cell-based, human
condition: CCRF-CEM cells, 10 µM peptide, percent of fluorescence with CXCL12 alone; at least three experiments
Bridges are numbered along the chain shown (N, C = ends). Where no end group is shown, it is not given here.
property: CXCL12-induced calcium efflux (Fluo-3 AM fluorescence)

Known CXCL12-induced calcium efflux (Fluo-3 AM fluorescence) results, listed for orientation:
- substance: "Arg-Ala-[Cys-Arg-Phe-Phe-Cys] (RACRFFC; disulfide 3-7) [Peptide R, CXCL12-mimetic disulfide-cyclic peptide]"
  experimental.target: "CXCR4"
  measured.value: "51.25 % of control"
- substance: "Arg-Ala-[Cys-Arg-His-Trp-Cys] (RACRHWC; disulfide 3-7) [Peptide S, CXCL12-mimetic disulfide-cyclic peptide]"
  experimental.target: "CXCR4"
  measured.value: "49.75 % of control"

API: the following record is the query input.
Noted CXCL12-induced calcium efflux (Fluo-3 AM fluorescence) for Arg-Ala-[Cys-Arg-Tyr-Trp-Cys] [Peptide T] , tested on CXCR4: 33.65 % of control

###

Tested on: CXCR4
assay.name: Competition with 12G5 anti-CXCR4 antibody binding (flow cytometry)
Set-up: species or system human
condition: CCRF-CEM cells, 10 µM peptide, 30 min pre-incubation at 37°C, PE-labelled 12G5, flow cytometry; at least three experiments
Bridges are numbered along the chain shown (N, C = ends). Where no end group is shown, it is not given here.
Would you kindly list association of the 12G5-CXCR4 antibody to the receptor for each of these substances?

- substance: "Arg-Ala-[Cys-Arg-Tyr-Trp-Cys] [Peptide T]"
  measured.value: "22 % of control"

Dear colleague, could you send me association of the 12G5-CXCR4 antibody to the receptor for each of the items below? Thanks.
1. Arg-Ala-[Cys-Arg-Phe-Phe-Cys] (RACRFFC; disulfide 3-7) [Peptide R, CXCL12-mimetic disulfide-cyclic peptide]
2. [Cys-Trp-His-Arg-Cys] (CWHRC; disulfide 1-5) [Peptide I, v-MIP-II mimetic disulfide-cyclic peptide]
3. Arg-Ala-[Cys-Arg-His-Trp-Cys] (RACRHWC; disulfide 3-7) [Peptide S, CXCL12-mimetic disulfide-cyclic peptide]

A)
["21 % of control", "45 % of control", "17 % of control"]

Data origin, for the record: paper PMC3772838
